Molecular target: kappa opioid receptor (Homo sapiens)
Sequence (P41145 whole entry): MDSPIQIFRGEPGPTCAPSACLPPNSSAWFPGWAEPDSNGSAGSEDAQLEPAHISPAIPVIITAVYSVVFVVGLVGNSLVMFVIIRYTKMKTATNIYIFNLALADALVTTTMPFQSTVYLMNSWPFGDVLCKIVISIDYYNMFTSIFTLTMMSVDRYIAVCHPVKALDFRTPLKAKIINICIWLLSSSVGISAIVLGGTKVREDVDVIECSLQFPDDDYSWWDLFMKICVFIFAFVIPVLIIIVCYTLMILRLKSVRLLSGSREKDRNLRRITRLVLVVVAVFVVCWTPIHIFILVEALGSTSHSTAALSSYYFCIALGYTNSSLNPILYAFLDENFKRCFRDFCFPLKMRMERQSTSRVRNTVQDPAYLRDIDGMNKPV
Test: Opioid receptor activation assay, DiscoveRx PathHunter Beta-Arrestin, kappa
Conditions: PathHunter Beta-Arrestin, 3-6 repeats; read-out: 95% confidence levels of EC50, activation of kappa receptors
Non-standard residues stand in square brackets, D forms with d. Residues, ends and D or L forms follow the SMILES beside them. *: point of attachment. NH(4-picolyl) = c1cc(CN*)ccn1; dNle = CCCC[C@@H](N)C(=O)O
PROPERTY: EC50

Solved entries (count: 3):
CCCC[C@@H](NC(=O)[C@@H](Cc1ccccc1)NC(=O)[C@H](N)Cc1ccccc1)C(=O)N[C@H](CCCNC(=N)N)C(=O)NCc1ccncc1 [CR665, D-Phe-D-Phe-D-Nle-D-Arg-NH-4-Picolyl, reference compound] (H-[dF][dF][dNle][dR]-{NH(4-picolyl)}); 9.07 to 13.1 nM
CCCC[C@@H](NC(=O)[C@@H](Cc1ccccc1)NC(=O)[C@H](N)Cc1ccccc1)C(=O)N[C@H](CCCCNC1CCCCC1)C(=O)NCc1ccncc1 [Compound 7]; 5.63 to 13.1 nM
CCCCNC(=N)NCCC[C@@H](NC(=O)[C@@H](CCCC)NC(=O)[C@@H](Cc1ccccc1)NC(=O)[C@H](N)Cc1ccccc1)C(=O)NCc1ccncc1 [Compound 3]; 1.38 to 18.7 nM

Under kappa opioid receptor (Homo sapiens): EC50 value of CCCC[C@@H](NC(=O)[C@@H](Cc1ccccc1)NC(=O)[C@H](N)Cc1ccccc1)C(=O)N[C@H](CCC[N+](C)(C)C)C(=O)NCc1ccncc1 [Compound 17] ?
47.2 to 166 nM

# iterate: CCCC[C@@H](NC(=O)[C@@H](Cc1ccccc1)NC(=O)[C@H](N)Cc1ccccc1)C(=O)N[C@H](CCCCNCc1ccccc1)C(=O)NCc1ccncc1 [Compound 11]
8.15 to 26.8 nM

Repeat with CCCC[C@@H](NC(=O)[C@@H](Cc1ccccc1)NC(=O)[C@H](N)Cc1ccccc1)C(=O)N[C@H](CCCCN(C)C)C(=O)NCc1ccncc1 [Compound 9]
15.3 to 54.5 nM
